test system: stable HCV 2a JFH-1 Rluc replicon cells (L31 present in NS5A); assay: Renilla luciferase HCV replicon reporter assay, genotype 2a JFH-1; type: cell-based; conditions: Hepatitis C virus, read-out: 2a JFH (nM), genotype 2a JFH-1 replicon (L31 in NS5A), stable cells

| STRUCTURE NOTATION | EC50, nM |
| --- | --- |
| CC[C@H](C)[C@H](NC(=O)OC)C(=O)N1[C@H](c2ncc(-c3ccc4c(c3)COc3cc5c(ccc6nc([C@@H]7CC[C@H](C)N7C(=O)[C@@H](NC(=O)OC)C7CCOCC7)[nH]c65)cc3-4)[nH]2)C[C@@H]2CCC[C@@H]21 | 0.019 |
| COC(=O)N[C@H](C(=O)N1[C@@H](C)CC[C@H]1c1ncc(-c2ccc3c(c2)COc2cc4c(ccc5nc([C@@H]6CC[C@H](C)N6C(=O)[C@@H](NC(=O)OC(C)(C)C)C(C)(C)O)[nH]c54)cc2-3)[nH]1)C(C)C | 1.87 |
| CC[C@H]1CC[C@@H](c2ncc(-c3ccc4c(c3)COc3cc5c(ccc6nc([C@@H]7C[C@@H]8CCC[C@@H]8N7C(=O)[C@@H](NC(=O)OC)C7CCOCC7)[nH]c65)cc3-4)[nH]2)N1C(=O)[C@@H](NC(=O)OC)C(C)C | 0.023 |
| COC(=O)N[C@H](C(=O)N1[C@@H](C)CC[C@H]1c1ncc(-c2ccc3c(c2)COc2cc4c(ccc5nc([C@@H]6CC[C@H](C)N6C(=O)[C@@H](NC(=O)OC)C6CC6)[nH]c54)cc2-3)[nH]1)C(C)C | 0.017 |

====

tested on: NS5A chimeric genotype 1b Con1 replicon with genotype 3a S52 strain NS5A gene; assay: Replicon assay, genotype 3a NS5A chimera; format: cell-based, HCV; conditions: Hepatitis C virus, read-out: 3a (t) (nM), genotype 3a NS5A chimeric replicon, transiently transfected (t)

| COMPOUND | EC50 |
| --- | --- |
| CC[C@H]1CC[C@@H](c2ncc(-c3ccc4c(c3)COc3cc5c(ccc6nc([C@@H]7CC[C@H](C)N7C(=O)[C@@H](NC(=O)OC)[C@@H](C)OC)[nH]c65)cc3-4)[nH]2)N1C(=O)[C@@H](NC(=O)OC)C1CCOCC1 | 0.055 nM |
| COC[C@H]1C[C@@H](c2ncc(-c3ccc4c(c3)COc3cc5c(ccc6nc([C@@H]7C[C@H](COC)CN7C(=O)[C@H](NC(=O)OC)c7ccccc7)[nH]c65)cc3-4)[nH]2)N(C(=O)[C@H](NC(=O)OC)c2ccccc2)C1 | 0.118 nM |
| CC[C@H]1CC[C@@H](c2ncc(-c3ccc4c(c3)COc3cc5c(ccc6nc([C@@H]7CC[C@H](C)N7C(=O)[C@@H](NC(=O)OC)C(C)C)[nH]c65)cc3-4)[nH]2)N1C(=O)[C@@H](NC(=O)OC)C1CCOCC1 | 0.049 nM |
| CC[C@H](C)C(NC(=O)OC)C(=O)N1[C@@H](C)CC[C@H]1c1nc2ccc3cc4c(cc3c2[nH]1)OCc1cc(-c2cnc([C@@H]3CC[C@H](C)N3C(=O)[C@@H](NC(=O)OC)[C@@H](C)OC)[nH]2)ccc1-4 (stereo partly drawn) | 0.024 nM |
| COC[C@H]1C[C@@H](c2nc3ccc4cc5c(cc4c3[nH]2)OCc2cc(-c3cnc([C@@H]4CC[C@H](C)N4C(=O)[C@@H](NC(=O)OC)C(C)C)[nH]3)ccc2-5)N(C(=O)[C@@H](NC(=O)OC)C2CCOCC2)C1 | 0.102 nM |
| COC(=O)N[C@H](C(=O)N1[C@@H](C)CC[C@H]1c1ncc(-c2ccc3c(c2)COc2cc4c(ccc5nc([C@@H]6C[C@H](C)CN6C(=O)[C@@H](NC(=O)OC)C6CCOCC6)[nH]c54)cc2-3)[nH]1)C(C)C | 0.074 nM |
| COC(=O)N[C@H](C(=O)N1[C@@H](C)CC[C@H]1c1nc(Cl)c(-c2ccc3c(c2)COc2cc4c(ccc5nc([C@@H]6CC[C@H](C)N6C(=O)[C@@H](NC(=O)OC)[C@@H](C)OC)[nH]c54)cc2-3)[nH]1)[C@@H](C)OC | 0.034 nM |
| COC(=O)N[C@H](C(=O)N1[C@@H](C)CC[C@H]1c1nc(C2CC2)c(-c2ccc3c(c2)COc2cc4c(ccc5nc([C@@H]6CC[C@H](C)N6C(=O)[C@@H](NC(=O)OC)[C@@H](C)OC)[nH]c54)cc2-3)[nH]1)[C@@H](C)OC | 0.032 nM |
| COC(=O)N[C@H](C(=O)N1[C@@H](C)CC[C@H]1c1ncc(-c2ccc3c(c2)COc2cc4c(ccc5nc([C@@H]6C[C@@H]7CCC[C@@H]7N6C(=O)[C@@H](NC(=O)OC)C6CCOCC6)[nH]c54)cc2-3)[nH]1)C(C)C | 0.055 nM |
